system: NCI-N87 cells; experiment: Cell viability assay (CellTiter-Glo), NCI-N87; assay type: cell-based; conditions: Homo sapiens, conjugates (Table II), HER2 expressing cells, 72 h
measured_parameter: IC50 (nM)
The response must be a number in nM with no trailing unit.

Prompt: GET /values?readout=IC50&system=NCI-N87 cells&item= C=C1C[C@H]2C=Nc3cc(OCCCC(=O)Nc4cn(C)c(C(=O)Nc5ccc(-c6cc7cc(OC)ccc7[nH]6)cc5)n4)c(OC)cc3C(=O)N2C1 [Compound 108]
Completion: 0.04

Prompt: GET /values?readout=IC50&system=NCI-N87 cells&item= C=C1CC2C=Nc3cc(OCCCC(=O)Nc4cn(C)c(C(=O)Nc5ccc(-c6cc(C(=O)n7ccc8cc(C(=O)OC)ccc87)n(C)c6)cc5)n4)c(OC)cc3C(=O)N2C1 (centres unmarked) [Compound 109]
Completion: 0.14

Prompt: GET /values?readout=IC50&system=NCI-N87 cells&item= C=C1C[C@H]2C=Nc3cc(OCCCC(=O)Nc4cn(C)c(C(=O)Nc5ccc(-c6nc7cc(OC)ccc7[nH]6)cc5)n4)c(OC)cc3C(=O)N2C1 [Compound 106]
Completion: 0.21

Prompt: GET /values?readout=IC50&system=NCI-N87 cells&item= C=C1CC2C=Nc3cc(OCCCC(=O)Nc4cn(C)c(C(=O)Nc5ccc(-c6cc(C(=O)n7ccc8cc(OC)ccc87)n(C)c6)cc5)n4)c(OC)cc3C(=O)N2C1 (centres unmarked) [Compound 107]
Completion: 0.03

Prompt: GET /values?readout=IC50&system=NCI-N87 cells&item= C=C1CC2C=Nc3cc(OCCCC(=O)Nc4cn(C)c(C(=O)Nc5ccc(-c6cc(C(=O)n7ccc8cc(N)ccc87)n(C)c6)cc5)n4)c(OC)cc3C(=O)N2C1 (centres unmarked) [Compound 105]
Completion: 0.03

###

System: NCI-N87 cells
Assay: Cell viability assay (CellTiter-Glo), NCI-N87
Format: cell-based
Details: Homo sapiens, PBD compounds (Table I), HER2 expressing cells, 72 h
Experimental: Cell Viability Assay for Antibody-Polymer-Drug Conjugates. PBD compounds and conjugates thereof were evaluated for their antiproliferation properties in tumor cell lines in vitro using CellTiter-Glo® (Promega Corp). […] CellTiter-Glo® reagent was added to the wells at room temperature and the luminescent signal was measured after 10 min using a SpectraMax M5 plate reader (Molecular Devices). […] IC50 values were determined from four-parameter curve fitting.
measured_parameter: pIC50
Convention used: pIC50 is expressed as -log10 of the molar concentration.

Prompt: Value lookup for pIC50; key = COc1cc2c(cc1OCCCC(=O)Nc1cn(C)c(C(=O)Nc3ccc(-c4cc(C(=O)O)n(C)c4)cc3)n1)N=C[C@@H]1CCCN1C2=O [Compound 44]
Completion: 6.98

Prompt: Value lookup for pIC50; key = C=C1C[C@H]2C=Nc3cc(OCCCC(=O)Nc4cn(C)c(C(=O)Nc5cc(C(=O)Nc6ccc(-c7nc8cc(N)ccc8[nH]7)cc6)n(C)c5)n4)c(OC)cc3C(=O)N2C1 [Compound 24]
Completion: 8.52

Prompt: Value lookup for pIC50; key = C=C1C[C@H]2C=Nc3cc(OCCCC(=O)Nc4cn(C)c(C(=O)Nc5ccc(-c6cc7cc(N)ccc7[nH]6)cc5)n4)c(OC)cc3C(=O)N2C1 [Compound 18]
Completion: 9.70

Prompt: Value lookup for pIC50; key = COc1cc2c(cc1OCCCC(=O)Nc1cc(C(=O)Nc3ccc(-c4cc(C(=O)NCCCO)n(C)c4)cc3)n(C)c1)N=C[C@@H]1CCCN1C2=O [Compound 38]
Completion: 8.40

Prompt: Value lookup for pIC50; key = C=C1C[C@H]2C=Nc3cc(OCCCC(=O)Nc4cn(C)c(C(=O)Nc5ccc(-c6nc7ccc(N)cc7[nH]6)cc5)n4)c(OC)cc3C(=O)N2C1 [Compound 9]
Completion: 9.05

Prompt: Value lookup for pIC50; key = C=C1CC2C=Nc3cc(OCCCC(=O)Nc4cn(C)c(C(=O)Nc5ccc(-c6nc7ccc(C(=O)OC)cc7[nH]6)cc5)n4)c(OC)cc3C(=O)N2C1 (stereo not drawn) [Compound 33]
Completion: 9.05

###

Give measured pIC50 for each item. Keep answers brief.
system: JIMT1 cells; test: Cell viability assay (CellTiter-Glo), JIMT1; type: cell-based; conditions: Homo sapiens, JIMT-1; PBD compounds (Table I); HER2 medium expression level cells; 72 h
Convention used: pIC50 is expressed as -log10 of the molar concentration.

Prompt: Value lookup for pIC50; key = C=C1CC2C=Nc3cc(OCCCC(=O)Nc4cn(C)c(C(=O)Nc5ccc(-c6nc7ccc(C(=O)OC)cc7[nH]6)cc5)n4)c(OC)cc3C(=O)N2C1 (centres unmarked) [Compound 33]
Completion: 9.52

Prompt: Value lookup for pIC50; key = C=C1C[C@H]2C=Nc3cc(OCCCC(=O)Nc4cc(-c5nc6ccc(N)cc6[nH]5)n(C)c4)c(OC)cc3C(=O)N2C1 [Compound 27]
Completion: 8.05

Prompt: Value lookup for pIC50; key = C=C1C[C@H]2C=Nc3cc(OCCCC(=O)Nc4cc(C(=O)Nc5ccc(-c6cc(C(=O)NCCCO)n(C)c6)cc5)n(C)c4)c(OC)cc3C(=O)N2C1 [Compound 37]
Completion: 9.00

Prompt: Value lookup for pIC50; key = C=C1C[C@H]2C=Nc3cc(OCCCC(=O)Nc4cn(C)c(C(=O)Nc5ccc(-c6cc(C(=O)NCCCO)n(C)c6)cc5)n4)c(OC)cc3C(=O)N2C1 [Compound 39]
Completion: 9.05

Prompt: Value lookup for pIC50; key = C=C1C[C@H]2C=Nc3cc(OCCCC(=O)Nc4cn(C)c(C(=O)Nc5ccc(-c6nc7ccc(N)cc7[nH]6)cc5)n4)c(OC)cc3C(=O)N2C1 [Compound 9]
Completion: 9.15

Prompt: Value lookup for pIC50; key = COc1cc2c(cc1OCCCC(=O)Nc1cn(C)c(C(=O)Nc3ccc(-c4cc(C(=O)O)n(C)c4)cc3)n1)N=C[C@@H]1CCCN1C2=O [Compound 44]
Completion: 6.96

Prompt: Value lookup for pIC50; key = C=C1C[C@H]2C=Nc3cc(OCCCC(=O)Nc4cn(C)c(C(=O)Nc5ccc(-c6cc7cc(N)ccc7[nH]6)cc5)n4)c(OC)cc3C(=O)N2C1 [Compound 18]
Completion: 9.70

Prompt: Value lookup for pIC50; key = COc1cc2c(cc1OCCCC(=O)Nc1cc(C(=O)Nc3ccc(-c4cc(C(=O)NCCCO)n(C)c4)cc3)n(C)c1)N=C[C@@H]1CCCN1C2=O [Compound 38]
Completion: 8.52

###

test system: NCI-N87 cells; assay: Cell viability assay (CellTiter-Glo), NCI-N87; type: cell-based; details: Homo sapiens, PBD compounds (Table I), HER2 expressing cells, 72 h
Give measured log10 of IC50 for each item. Keep answers brief.
Please keep in mind that the values are log10 of IC50 expressed in nM.

Prompt: Value lookup for log10 of IC50; key = C=C1C[C@H]2C=Nc3cc(OCCCC(=O)Nc4cc(-c5nc6ccc(N)cc6[nH]5)n(C)c4)c(OC)cc3C(=O)N2C1 [Compound 27]
Completion: 1.11

Prompt: Value lookup for log10 of IC50; key = C=C1C[C@H]2C=Nc3cc(OCCCC(=O)Nc4cc(C(=O)Nc5ccc(-c6cc(C(=O)NCCCO)n(C)c6)cc5)n(C)c4)c(OC)cc3C(=O)N2C1 [Compound 37]
Completion: 0.00

Prompt: Value lookup for log10 of IC50; key = C=C1C[C@H]2C=Nc3cc(OCCCC(=O)Nc4cn(C)c(C(=O)Nc5ccc(-c6cc(C(=O)NC[C@H](C)O)n(C)c6)cc5)n4)c(OC)cc3C(=O)N2C1 [Compound 42]
Completion: 0.15

Prompt: Value lookup for log10 of IC50; key = COc1cc2c(cc1OCCCC(=O)Nc1cn(C)c(C(=O)Nc3ccc(-c4cc(C(=O)NCCCO)n(C)c4)cc3)n1)N=C[C@@H]1CCCN1C2=O [Compound 40]
Completion: 0.23

Prompt: Value lookup for log10 of IC50; key = C=C1C[C@H]2C=Nc3cc(OCCCC(=O)Nc4cn(C)c(C(=O)Nc5ccc(-c6cc(C(=O)O)n(C)c6)cc5)n4)c(OC)cc3C(=O)N2C1 [Compound 43]
Completion: 1.08

Prompt: Value lookup for log10 of IC50; key = C=C1C[C@H]2C=Nc3cc(OCCCC(=O)Nc4cn(C)c(C(=O)Nc5ccc(-c6cc(C(=O)OCCCN)n(C)c6)cc5)n4)c(OC)cc3C(=O)N2C1 [Compound 41]
Completion: 0.80

Prompt: Value lookup for log10 of IC50; key = C=C1C[C@H]2C=Nc3cc(OCCCC(=O)Nc4cn(C)c(C(=O)Nc5ccc(-c6cc(C(=O)NCCCO)n(C)c6)cc5)n4)c(OC)cc3C(=O)N2C1 [Compound 39]
Completion: -0.40
